Data origin: patent US20220332816A1

Target: T1, Recombinant human TIGIT (human, UniProt Q495A1 22-141, limits assumed)
T1 construct: also called T cell immunoreceptor with Ig and ITIM domains
T1 sequence: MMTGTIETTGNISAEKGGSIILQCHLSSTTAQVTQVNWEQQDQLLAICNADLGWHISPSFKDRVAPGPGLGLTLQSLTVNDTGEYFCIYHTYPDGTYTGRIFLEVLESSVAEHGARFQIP
Assay: ELISA, recombinant human TIGIT coated on plate, serially diluted antibody
Experimental: The recombinantly expressed antibodies were used to assess binding activity to TIGIT by conventional ELISA according to the known art. […] Anti-TIGIT antibodies' blockade activity was assessed using engineered cell lines, kit reagents (TIGIT/CD155 Blockade Bioassay, J2201, Promega, Madison, Wis.), and a luminometer (Promega, Madison, Wis.) and the results were used to compare against benchmark antibodies with known blockade activity (FIG. 2). […]
PROPERTY MEASURED: EC50 (nM)
Quick reminder: number only, in nM, skip the unit.

BINDER | MEASUREMENT
SCT-Ga496 (antibody, V domains shown) VH: EVKLVESGGGLVQPGGSLRLSCAASGFAFSSFDMSWVRQAPGKGLEWVAVISSGGSYTFYPDSVKGRFTISRDNSKNTLYLQMNSLRAEDTALYFCTRQDYRYPYIMDYWGQGTLVTVSS VL: DIQMTQSPSSLSASVGDRVTITCHASQNINVWLSWYQQKPGKAPKLLIYKASTLASGVPSRFSGSGSGTDFTLTISSLQPDDFATYYCQQGQSYPWTFGGGTKVEIK | 0.67

In: # input binder: SCT-Ga487 (antibody, V domains shown) VH: QVQLQQPGAELVKPGASVKMSCKATGYTFSNYWIEWVKQTPGRGLEWIGEILPGSGSSYYNQKFKGKATLTADKSSSTAYMQLSSLTSEDSAVYYCARQKYGNFYYFDFWGAGTTVTVSA VL: AIQMTQSPSSLSASVGDRVTITCRASQGIGNYLNWYQQKPGKAPKLLIYYTSSLHSGVPSRFSGSGSGTDYTFTISSLQPEDIATYYCHQYSKLPYTFGQGTKVEIK ; wanted: its EC50
Out: 1.96

In: Bench note: what EC50 did SCT-Ga433 (antibody, V domains shown, Murine variable domains) VH: DVKLVESGGGLVKPGGSLKLSCSASGFTFSSYTMSWVRQTPEKRLEWVATISSGGSYTYYPDSVKGRFTISRDNAKNTLYLQMSSLKSEDTAMFYCTRWLLSLYAMDYWGQGTSVTVSS VL: DIQMNQSPSSLSASLGDTITITCHASQNINVWLSWYQQKPGNISKLLIYKASNFHTGVPSRFSGSGSGTNFTLTISSLQPEDIATYYCQQGQTYPFTFGGGTKLEIK show?
Out: 1.1
